- Target under test: Cereblon/Ikaros (Homo sapiens) (UniProt Q96SW2+Q13422)
- Test description: Protac activity at CRBN/IKZF1 in human MM1.S cells assessed as induction of IKZF1 degradation at 1 uM incubated for 6 hrs relative to control
- Format: cell-based
The threshold is 1%. Values of Activity beneath it are tagged rule met; values meeting or exceeding it are tagged rule not met.

> print(dat)
                                   compound  classification
1  O=C(COCCOCCOCc1ccccc1)NCc1cccc2c1C(=O)N(C1CCC(=O)NC1=O)C2=O (centres undefined)    rule not met
2  O=C1CCC(N2Cc3cc(NCCOCCOCCOCc4ccccc4)ccc3C2=O)C(=O)N1 (centres undefined)        rule met
3  O=C1CCC(N2C(=O)c3cccc(OCCOCCOCCOCc4ccccc4)c3C2=O)C(=O)N1 (centres undefined)    rule not met
4  O=C1CCC(N2C(=O)c3cccc(NCCOCCOCCOCc4ccccc4)c3C2=O)C(=O)N1 (centres undefined)    rule not met
5  O=C(CNc1cccc2c1C(=O)N(C1CCC(=O)NC1=O)C2=O)NCCOCCOCCOCc1ccccc1 (centres undefined)    rule not met
6  O=C1CCC(N2C(=O)c3ccc(NCCOCCOCCOCc4ccccc4)cc3C2=O)C(=O)N1 (centres undefined)    rule not met
7  O=C(COc1ccc2c(c1)C(=O)N(C1CCC(=O)NC1=O)C2=O)NCCOCCOCCOCc1ccccc1 (centres undefined)        rule met
8  O=C(COCCOCCOCc1ccccc1)NCc1ccc2c(c1)C(=O)N(C1CCC(=O)NC1=O)C2=O (centres undefined)        rule met
